IC50 listing for selected compounds.
Biological target: human MRGPRX2 (Homo sapiens, UniProt Q96LB1)
Sequence (Q96LB1 whole entry): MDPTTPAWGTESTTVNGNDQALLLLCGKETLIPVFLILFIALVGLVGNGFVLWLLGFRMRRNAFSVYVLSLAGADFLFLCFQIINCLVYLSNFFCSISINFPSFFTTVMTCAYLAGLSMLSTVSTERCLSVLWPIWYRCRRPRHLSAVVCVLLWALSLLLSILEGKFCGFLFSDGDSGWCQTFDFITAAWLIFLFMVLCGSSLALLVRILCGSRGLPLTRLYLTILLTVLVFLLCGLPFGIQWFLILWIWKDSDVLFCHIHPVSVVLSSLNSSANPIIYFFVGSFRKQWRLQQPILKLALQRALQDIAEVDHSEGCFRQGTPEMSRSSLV
Experiment: MRGPRX2 activity: IP-One HTRF antagonist assay versus 0.3 uM Cortistatin 14
Settings: CHO cells expressing human MRGPRX2; IP-1 HTRF; versus 0.3 uM Cortistatin 14 agonist; read-out: MRGPR2 Antagonist Activity
Procedure: CHO cells stably transfected to express human MRGPRX2 were maintained in an incubator at 37° C. with 5% CO2 and grown in F12 (HAM) media with 10% fetal bovine serum (FBS), 1% Glutamax, 1% penicillin/streptomycin, 800 μg/mL Geneticin (G418), and 300 μg/mL Hygromycin B. Cells were plated in a […] assay plate at 20,000 cells per well in 12 μL of Opti-MEM and kept in an incubator overnight. […] The plate was read on a Molecular Devices SpectraMax iD5 plate reader. […]

Lab note: compound O=C(N[C@H]1CC[C@@H](Nc2cc(C(F)(F)F)nc3ccc(Cl)cc23)CC1)c1csnn1 [4-107] tested on human MRGPRX2 (Homo sapiens, UniProt Q96LB1); recorded IC50 was 501 to 1000 nM

# IC50 measured on human MRGPRX2 (Homo sapiens, UniProt Q96LB1) for item CN(C)c1ccc(C(=O)N[C@H]2CC[C@@H](Nc3cc(C(F)(F)F)nc4ccc(Cl)cc34)CC2)cc1 [4-102] = 100 to 500 nM

Assay human MRGPRX2 (Homo sapiens, UniProt Q96LB1), sample CCNc1cccc(C(=O)N[C@H]2CC[C@@H](Nc3cc(C(F)(F)F)nc4ccc(Cl)cc34)CC2)c1 [4-282] , IC50 read: 100 to 500 nM

Tested on human MRGPRX2 (Homo sapiens, UniProt Q96LB1), the item N#Cc1ccc(C(=O)N[C@H]2CC[C@@H](Nc3cc(C(F)(F)F)nc4ccccc34)CC2)s1 [4-242] showed IC50 equal to 1000 to 2500 nM

Response field IC50 (human MRGPRX2 (Homo sapiens, UniProt Q96LB1)) for item CCCc1nnsc1C(=O)N[C@H]1CC[C@@H](Nc2cc(C(F)(F)F)nc3ccc(Cl)cc23)CC1 [4-209] : 1000 to 2500 nM

I looked up O=C(N[C@H]1CC[C@@H](Nc2cc(C(F)(F)F)nc3ccccc23)CC1)c1cc(Cl)cs1 [4-251] and its IC50 for human MRGPRX2 (Homo sapiens, UniProt Q96LB1) was 501 to 1000 nM

The reported human MRGPRX2 (Homo sapiens, UniProt Q96LB1) IC50 of CNC(=O)Nc1cccc(C(=O)N[C@H]2CC[C@@H](Nc3cc(C(F)(F)F)nc4ccc(Cl)cc34)CC2)c1 [Example 5A] is < 100 nM

Entry Cc1cc(C(F)(F)F)nn1CC(=O)N[C@H]1CC[C@@H](Nc2cc(C(F)(F)F)nc3ccc(Cl)cc23)CC1 [4-141] under human MRGPRX2 (Homo sapiens, UniProt Q96LB1) had IC50 of 1000 to 2500 nM

The value of IC50 recorded for CC(C)C(=O)Nc1cccc(C(=O)N[C@H]2CC[C@@H](Nc3cc(C(F)(F)F)nc4ccc(Cl)cc34)CC2)c1 [4-279] when tested on human MRGPRX2 (Homo sapiens, UniProt Q96LB1) reads 100 to 500 nM

The value of IC50 recorded for O=C(N[C@H]1CC[C@@H](Nc2cc(C(F)(F)F)nc3ccc(Cl)cc23)CC1)c1cccn1-c1ccccc1 [4-162] when tested on human MRGPRX2 (Homo sapiens, UniProt Q96LB1) reads 1000 to 2500 nM

More entries:
# lookup: CNc1cccc(C(=O)N[C@H]2CC[C@@H](Nc3cc(C(F)(F)F)nc4ccc(Cl)cc34)CC2)c1 [4-8] on human MRGPRX2 (Homo sapiens, UniProt Q96LB1), IC50 = 100 to 500 nM

# value of IC50, human MRGPRX2 (Homo sapiens, UniProt Q96LB1), item O=C1CCc2ccc(C(=O)N[C@H]3CC[C@@H](Nc4cc(C(F)(F)F)nc5ccc(Cl)cc45)CC3)cc2N1 [4-283] = 100 to 500 nM

// compound CC1C(C(=O)N[C@H]2CC[C@@H](Nc3cc(C(F)(F)F)nc4ccc(Cl)cc34)CC2)CC2CC1C2(C)C (stereo partly drawn) [4-200] , assay human MRGPRX2 (Homo sapiens, UniProt Q96LB1), IC50 value: 1000 to 2500 nM

Form field, IC50 with human MRGPRX2 (Homo sapiens, UniProt Q96LB1), item CN(C)c1ccc(C(=O)N[C@H]2CC[C@@H](Nc3cc(C(F)(F)F)nc4ccccc34)CC2)cc1 [3-25] : 100 to 500 nM

IC50 of COc1ccc(C(=O)N[C@H]2CC[C@@H](Nc3cc(C(F)(F)F)nc4ccccc34)CC2)cc1N(C)C [4-258] , assay on human MRGPRX2 (Homo sapiens, UniProt Q96LB1), is 501 to 1000 nM

Summary line: CC(C)Cc1cc(C(=O)N[C@H]2CC[C@@H](Nc3cc(C(F)(F)F)nc4ccc(Cl)cc34)CC2)n(C)n1 [4-129] , human MRGPRX2 (Homo sapiens, UniProt Q96LB1), reported IC50 = 1000 to 2500 nM
